Data provenance: patent US20250376535A1

# measurement-target: T1, 4-1BB Fc (human, UniProt Q07011 24-183)
# T1 construct: also called rh-41BB; 41BB-hFc
# T1 sequence (Q07011 24-183): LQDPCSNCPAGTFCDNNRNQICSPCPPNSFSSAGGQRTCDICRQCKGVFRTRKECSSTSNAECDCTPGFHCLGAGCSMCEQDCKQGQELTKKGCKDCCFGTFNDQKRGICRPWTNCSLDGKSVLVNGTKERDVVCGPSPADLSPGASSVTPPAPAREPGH
# assay-comment: ELISA, 4-1BB Fc coated, VHH at 500 nM
measured-parameter: OD450
Could you respond with only the numeric value?

-- ask GET /values?readout=OD450&item= 4-1BB-10 (VHH, not shown: small tags and cut ends) VHH: EVQLVESGGGLVQAGGSLRLSCAASGAIFSYNGMAWYRQAPGKQREFVAVITPDGTTKYGDSVKGRFTISRDITKNTVDLEMNSLKPEDTAVYTCAALRNSGSTSWGQGTQVTVSS
-- reply 1.58
